System: human cervical tumor cell line HeLa (ATCC CCL-2)
Assay: SAC-Formation - Nocodazole-Induced Assay
Assay type: cell-based
Test conditions: Homo sapiens, HeLa, 24 h, HeLa cells, nocodazole 0.1 μg/ml together with test compound, decrease of mitotic cells (phospho-histone H3 Ser10)
pIC50: −log10 of the molar value.
Result type: pIC50

Known pIC50 results, listed for orientation:
COC(=O)CCc1cccc(NC(=O)c2c(C)nsc2Nc2ccc(C#N)cn2)c1 :: 6.64
Cc1nsc(Nc2cnc(C(F)(F)F)cn2)c1C(=O)Nc1ccc(OCC2CCN(CCC(F)(F)F)CC2(F)F)nc1 (centres unmarked) :: 5.92
CNS(=O)(=O)c1ccc(NC(=O)c2c(C)nsc2Nc2cncc(C(F)(F)F)n2)cc1 :: 7.02

A. Cc1nsc(Nc2cnc(C(F)(F)F)cn2)c1C(=O)Nc1ccc(OCCN(C)CCC(F)(F)F)nc1
B. Cc1nsc(Nc2cnc(C(F)(F)F)cn2)c1C(=O)Nc1ccc(O[C@@H]2CCCN(CC(F)F)C2)nc1
C. COC(=O)CNC(=O)c1cccc(NC(=O)c2c(C)nsc2Nc2cnc3ccccc3n2)c1
D. Cc1nsc(Nc2cnc(C(F)(F)F)cn2)c1C(=O)Nc1ccc(F)c(O[C@H]2CCN(CCC(F)(F)F)C2)c1
## Input Would you mind ranking these compounds by ascending pIC50? # output: labels, in the requested order
## Output C, B, A, D
